- Target System: T1, pm3 (Y17 sulfated; Y15 and Y16 not sulfated)
- T1 construct: also called sulfated CCR8 N-terminal peptide pm3
- T1 sequence (peptide, as listed by the source): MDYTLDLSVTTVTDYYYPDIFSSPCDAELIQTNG
- Assay: ELISA on coated peptide [cont.]
Endpoint: binding result

# Binder, Val
measured = [
    ("anti-CCR8 mAb 1-6 (antibody, V domains shown, Murine hybridoma mAb) VH: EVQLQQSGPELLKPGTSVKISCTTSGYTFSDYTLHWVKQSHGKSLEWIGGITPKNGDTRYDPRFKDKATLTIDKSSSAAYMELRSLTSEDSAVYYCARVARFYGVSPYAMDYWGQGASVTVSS VL: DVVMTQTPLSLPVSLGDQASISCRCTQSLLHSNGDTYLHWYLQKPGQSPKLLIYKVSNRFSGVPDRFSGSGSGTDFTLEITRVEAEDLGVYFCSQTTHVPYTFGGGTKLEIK", "binds"),
    ("anti-CCR8 mAb 1-18 (antibody, V domains shown, Murine hybridoma mAb) VH: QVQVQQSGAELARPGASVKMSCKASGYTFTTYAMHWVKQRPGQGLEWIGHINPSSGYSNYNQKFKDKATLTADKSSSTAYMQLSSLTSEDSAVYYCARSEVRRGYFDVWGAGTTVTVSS VL: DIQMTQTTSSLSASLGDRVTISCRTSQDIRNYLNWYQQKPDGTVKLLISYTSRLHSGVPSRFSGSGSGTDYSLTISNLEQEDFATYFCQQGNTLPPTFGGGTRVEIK", "binds"),
]

Entry source: patent US20260132208A1
